Biological target: Epidermal growth factor receptor (Homo sapiens) (UniProt P00533)
Sequence (P00533 whole entry, looked up): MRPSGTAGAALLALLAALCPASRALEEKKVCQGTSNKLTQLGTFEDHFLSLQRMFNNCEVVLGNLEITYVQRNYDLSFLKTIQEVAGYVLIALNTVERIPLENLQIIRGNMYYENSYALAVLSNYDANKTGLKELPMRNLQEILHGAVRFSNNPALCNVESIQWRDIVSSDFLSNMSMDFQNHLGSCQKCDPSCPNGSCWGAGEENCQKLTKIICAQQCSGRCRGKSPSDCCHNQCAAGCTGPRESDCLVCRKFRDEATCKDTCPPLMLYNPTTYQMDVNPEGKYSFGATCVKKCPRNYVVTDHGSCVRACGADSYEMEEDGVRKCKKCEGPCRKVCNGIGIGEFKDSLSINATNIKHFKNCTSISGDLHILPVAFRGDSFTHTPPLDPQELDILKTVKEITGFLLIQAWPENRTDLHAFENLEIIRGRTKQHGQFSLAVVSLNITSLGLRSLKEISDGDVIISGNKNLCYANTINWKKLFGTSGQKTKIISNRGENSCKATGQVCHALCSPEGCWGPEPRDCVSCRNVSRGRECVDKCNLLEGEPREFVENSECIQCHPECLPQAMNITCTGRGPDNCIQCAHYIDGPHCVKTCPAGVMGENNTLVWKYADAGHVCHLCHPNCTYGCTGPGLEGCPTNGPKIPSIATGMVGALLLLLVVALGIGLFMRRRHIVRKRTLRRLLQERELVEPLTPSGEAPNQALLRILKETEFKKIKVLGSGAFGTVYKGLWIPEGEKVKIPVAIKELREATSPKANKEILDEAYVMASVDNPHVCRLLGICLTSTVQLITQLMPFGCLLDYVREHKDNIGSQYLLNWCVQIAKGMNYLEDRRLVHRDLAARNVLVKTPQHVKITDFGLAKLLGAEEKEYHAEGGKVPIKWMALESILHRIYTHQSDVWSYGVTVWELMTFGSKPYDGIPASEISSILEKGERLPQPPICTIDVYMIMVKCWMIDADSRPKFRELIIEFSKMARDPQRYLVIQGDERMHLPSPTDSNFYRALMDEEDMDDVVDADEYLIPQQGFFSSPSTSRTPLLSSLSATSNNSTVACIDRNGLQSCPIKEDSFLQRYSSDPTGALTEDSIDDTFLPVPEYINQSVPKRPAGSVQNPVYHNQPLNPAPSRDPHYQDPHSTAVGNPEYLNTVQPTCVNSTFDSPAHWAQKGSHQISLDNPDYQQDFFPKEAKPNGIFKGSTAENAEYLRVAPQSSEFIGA
Assay: EGFR binders on small-molecule microarrays, primary screen, biochemical, small-molecule microarray, 635 nm fluorescence (AID 1104);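 further: score merges 667 nm emission intensity with spot signal to noise over triplicate slides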
Conditions: EGFR binding, higher = more signal

{"molecule": "CCOc1cc(C(O)C2C=CC3C(=O)N(C4CCCCC4)C(=O)C3N2Nc2ccc(OC)cc2)ccc1O (configuration not stated)", "composite z-score": 0.388}
{"molecule": "O=C1c2ccccc2[C@](Cc2ccccc2I)(C(=O)NCCN2CCOCC2)[C@H](c2ccc(CO)cc2)N1Cc1ccccc1", "composite z-score": 0.167}
{"molecule": "C=CC[C@@]1(C(=O)O)N=C(c2ccc(OCCCO)cc2)O[C@@H]1c1ccccc1", "composite z-score": -1.9}
{"molecule": "CC(C)(C)N1CC=CC23O[C@@H]4C=CCOC(=O)[C@@H]4[C@H]2C(=O)N(CCCO)[C@@H]3C1=O (some centres not stated)", "composite z-score": -1.66}
{"molecule": "[N-]=[N+]=NCc1ccccc1[C@H]1OC(c2ccc(OCCCO)cc2)=N[C@@]1(CCS(=O)(=O)c1ccccc1)C(N)=O", "composite z-score": -0.216}
{"molecule": "CN(C)CCCNC(=O)[C@@]1(C)c2ccccc2C(=O)N(Cc2cc(C(F)(F)F)cc(C(F)(F)F)c2)[C@H]1c1ccc(CO)cc1", "composite z-score": -1.9}
{"molecule": "CC(C)CN1C(=O)[C@@]2(c3ccc([N+](=O)[O-])cc3)CC(=O)N(CC34CC5CC(CC(C5)C3)C4)[C@@H]2c2ccc(CO)cc21", "composite z-score": -1.72}

* * *

Experiment: E. coli acrAB mutant growth effects, primary screen, E. coli filamentation inducers, strain DRC39, OD650, 48 h (AID 1179);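 further: screen aims at cell division blockers that make cells filament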
Conditions: E. coli DRC39 delta-acrAB growth, higher = more signal, called active from +8 up or from −8 down
observed.property: z-score

{"compound": "CN(C)CCCNC(=O)[C@@H]1c2ccccc2C(=O)N(Cc2ccc(OC(F)(F)F)cc2)[C@H]1c1ccc(CO)cc1", "observed.property": "z-score", "reading": -0.193}
{"compound": "O=C(NC1CC1)[C@@H]1c2ccccc2C(=O)N(Cc2ccccc2)[C@H]1c1ccc(CO)cc1", "observed.property": "z-score", "reading": 1.58}
{"compound": "COc1ccc([Si](C)(C)[C@H]2[C@H](CCn3cc([C@H](O)c4ccccc4)nn3)O[C@@]3(C(=O)N(Cc4cccc(N5C(=O)c6cccc7cccc5c67)c4)c4ccccc43)[C@@H]2C)cc1", "observed.property": "z-score", "reading": -0.216}
{"compound": "COc1ccc([Si](C)(C)[C@@H]2[C@@H](CCn3cc([C@H](O)c4ccccc4)nn3)O[C@]3(C(=O)N(Cc4ccc(N5CCOC5=O)cc4)c4ccccc43)[C@H]2C)cc1", "observed.property": "z-score", "reading": -0.0694}
{"compound": "CO[C@H]1O[C@H](CO)[C@@H](OC(=O)c2ccc(Br)cc2)[C@@H]2OC(=O)[C@@H](Cc3ccc4ccccc4c3)C/C=C/C[C@H](Cc3ccc4ccccc4c3)C(=O)O[C@@H]12", "observed.property": "z-score", "reading": 1.03}
{"compound": "C=CCOC(=O)[C@H]1[C@@H]2C(=O)O[C@@H](c3ccccc3)[C@@H](c3ccccc3)N2[C@@H](c2ccc(OCCOC(=O)[C@H]3C[C@H]4C(=O)N[C@@H](Cc5ccccc5)C(=O)N4[C@H]3c3cccc(OCCO)c3)cc2)[C@]12C(=O)Nc1ccc(I)cc12", "observed.property": "z-score", "reading": 0.0436}
{"compound": "CC(C)C(CO)N1C(=O)[C@]2(C)C3C(=O)OCCC/C=C\\[C@H]3OC23C=CCN(c2ccc(Cl)cc2)C(=O)[C@@H]13 (stereo partly drawn)", "observed.property": "z-score", "reading": -0.261}
{"compound": "COCCCNC(=O)[C@@]1(Sc2ccc(C)cc2)CC(=O)N(C2Cc3ccccc3C2)[C@@H]1c1ccc(CO)cc1I", "observed.property": "z-score", "reading": 0.0605}
